test: Fraction of drug unbound to brain proteins, rat; assay type: in vitro ADME; conditions: read-out: Fu (b)
assayEndpoint: fraction unbound
I only need the number, thanks.

Consider CN1CCN(c2cccc3nc([C@H]4CCC[C@@H](c5ncccc5Cl)N4)cn23)CC1 (racemic) [Compound I-149] . Its measured fraction unbound is 0.038

Consider CN1CCN(c2cccc3nc([C@@H]4CCC[C@H](c5ncccc5Cl)N4)cn23)CC1 (single isomer, unassigned) . Its measured fraction unbound is 0.061

Consider Cc1cccnc1[C@@H]1CCC[C@H](c2nc3cccc(N4CCN(C)CC4)n3c2Cl)N1 . Its measured fraction unbound is 0.007

Consider CN1CCN(c2cccc3nc([C@H]4CCC[C@@H](c5ncccc5Cl)N4)cn23)CC1 (single isomer, unassigned) [Compound I-188] . Its measured fraction unbound is 0.057

Just for reference, patent US10759796B2 is where these values come from.
